EXPERIMENTAL_PROTOCOL: Rising single dose (RSD) study: pharmacokinetics of orally administered COMPOUND 1 in healthy subjects
Assay type: in vivo, human
TEST_SETTINGS: male, human, plasma, po, 40 mg, single oral dose 40 mg; Tmax corresponding to minimum individual Cmax; read-out: Tmax
MEASURED_ENDPOINT: Tmax (min)
Please reply with the bare figure in min and do not write the unit itself.

The value of Tmax measured for the compound "CCOC(=O)N[C@@H]1CC[C@@H]2[C@@H](C1)C[C@H]1C(=O)O[C@H](C)[C@H]1[C@H]2/C=C/c1ccc(-c2cccc(F)c2)cn1" turned out to be 30

---

EXPERIMENTAL_PROTOCOL: Rising single dose (RSD) study: pharmacokinetics of orally administered COMPOUND 1 in healthy subjects
Type: in vivo, human
TEST_SETTINGS: male, human, plasma, po, 1 mg, single oral dose 1 mg, n=6; value (range); read-out: Tmax
Method: Phase I clinical studies were designed to evaluate the pharmacokinetics of COMPOUND 1 in healthy subjects after rising single and multiple doses. […] In the single-dose study, 50 healthy males were enrolled into 6 sequential cohorts and randomized to receive in ascending dose manner placebo (n=2-3/group) or oral COMPOUND 1 (0.25, 1, 5, 10, 20 and 40 mg; n=5-6/group). […] Measured and derived pharmacokinetic parameters were used to assess the pharmacokinetic profile. […]
MEASURED_ENDPOINT: Tmax (h)
Please reply with the bare figure in h and do not write the unit itself.

The value of Tmax measured for the compound CCOC(=O)N[C@@H]1CC[C@@H]2[C@@H](C1)C[C@H]1C(=O)O[C@H](C)[C@H]1[C@H]2/C=C/c1ccc(-c2cccc(F)c2)cn1 [COMPOUND 1] turned out to be 1.25

---

EXPERIMENTAL_PROTOCOL: Rising single dose (RSD) study: pharmacokinetics of orally administered COMPOUND 1 in healthy subjects
Assay type: in vivo, human
TEST_SETTINGS: male, human, plasma, po, 0.25 mg, single oral dose 0.25 mg, n=6; value (range); read-out: Tmax
MEASURED_ENDPOINT: Tmax
Note: state the figure and append the unit.

The value of Tmax measured for the compound "CCOC(=O)N[C@@H]1CC[C@@H]2[C@@H](C1)C[C@H]1C(=O)O[C@H](C)[C@H]1[C@H]2/C=C/c1ccc(-c2cccc(F)c2)cn1" turned out to be 1 h

---

EXPERIMENTAL_PROTOCOL: Rising single dose (RSD) study: pharmacokinetics of orally administered COMPOUND 1 in healthy subjects
Type: in vivo, human
TEST_SETTINGS: male, human, plasma, po, 40 mg, loading dose 40 mg, single oral (Table 3); read-out: Tmax range
MEASURED_ENDPOINT: Tmax

The value of Tmax measured for the compound "CCOC(=O)N[C@@H]1CC[C@@H]2[C@@H](C1)C[C@H]1C(=O)O[C@H](C)[C@H]1[C@H]2/C=C/c1ccc(-c2cccc(F)c2)cn1" turned out to be 0.5 to 1.5 h

---

EXPERIMENTAL_PROTOCOL: clinical
TEST_SETTINGS: human, in vivo, 3 mg, Tmax Median
MEASURED_ENDPOINT: Tmax

The value of Tmax measured for the compound "CCOC(=O)N[C@@H]1CC[C@@H]2[C@@H](C1)C[C@H]1C(=O)O[C@H](C)[C@H]1[C@H]2/C=C/c1ccc(-c2cccc(F)c2)cn1" turned out to be 1 h

---

EXPERIMENTAL_PROTOCOL: clinical
TEST_SETTINGS: human, in vivo, Mean terminal-phase half-life (t1/2), range over dose groups
MEASURED_ENDPOINT: half-life

The value of half-life measured for the compound CCOC(=O)N[C@@H]1CC[C@@H]2[C@@H](C1)C[C@H]1C(=O)O[C@H](C)[C@H]1[C@H]2/C=C/c1ccc(-c2cccc(F)c2)cn1 [COMPOUND 1] turned out to be 173 to 269 h

---

EXPERIMENTAL_PROTOCOL: Rising single dose (RSD) study: pharmacokinetics of orally administered COMPOUND 1 in healthy subjects
Type: in vivo, human
TEST_SETTINGS: male, human, plasma, po, 40 mg, single oral dose 40 mg, n=5; mean (CV %); read-out: AUC(0-72 hr), Mean
MEASURED_ENDPOINT: AUC(0-t)

The value of AUC(0-t) measured for the compound "CCOC(=O)N[C@@H]1CC[C@@H]2[C@@H](C1)C[C@H]1C(=O)O[C@H](C)[C@H]1[C@H]2/C=C/c1ccc(-c2cccc(F)c2)cn1" turned out to be ~6030 ng·h/mL

---

EXPERIMENTAL_PROTOCOL: Rising single dose (RSD) study: pharmacokinetics of orally administered COMPOUND 1 in healthy subjects
Assay type: in vivo, human
TEST_SETTINGS: male, human, plasma, po, 20 mg, single oral dose 20 mg, n=5; value (range); read-out: Tmax
MEASURED_ENDPOINT: Tmax (h)
Please reply with the bare figure in h and do not write the unit itself.

The value of Tmax measured for the compound "CCOC(=O)N[C@@H]1CC[C@@H]2[C@@H](C1)C[C@H]1C(=O)O[C@H](C)[C@H]1[C@H]2/C=C/c1ccc(-c2cccc(F)c2)cn1" turned out to be 1.5

---

EXPERIMENTAL_PROTOCOL: Rising single dose (RSD) study: pharmacokinetics of orally administered COMPOUND 1 in healthy subjects
Assay type: in vivo, human
TEST_SETTINGS: male, human, plasma, po, 40 mg, single oral dose 40 mg, n=5; value (range); read-out: Tmax, Mean
MEASURED_ENDPOINT: Tmax (h)
Please reply with the bare figure in h and do not write the unit itself.

The value of Tmax measured for the molecule "CCOC(=O)N[C@@H]1CC[C@@H]2[C@@H](C1)C[C@H]1C(=O)O[C@H](C)[C@H]1[C@H]2/C=C/c1ccc(-c2cccc(F)c2)cn1" turned out to be 1.5

---

EXPERIMENTAL_PROTOCOL: Rising single dose (RSD) study: pharmacokinetics of orally administered COMPOUND 1 in healthy subjects
Format: in vivo, human
TEST_SETTINGS: male, human, plasma, po, 40 mg, single oral dose 40 mg, n=5; mean (CV %); read-out: Cmax, Mean
MEASURED_ENDPOINT: Cmax

The value of Cmax measured for the molecule CCOC(=O)N[C@@H]1CC[C@@H]2[C@@H](C1)C[C@H]1C(=O)O[C@H](C)[C@H]1[C@H]2/C=C/c1ccc(-c2cccc(F)c2)cn1 [COMPOUND 1] turned out to be ~376 ng/mL

---

EXPERIMENTAL_PROTOCOL: Rising single dose (RSD) study: pharmacokinetics of orally administered COMPOUND 1 in healthy subjects
Assay type: in vivo, human
TEST_SETTINGS: male, human, plasma, po, 40 mg, loading dose 40 mg, single oral; range of individual values (Table 3); read-out: Cmax range
MEASURED_ENDPOINT: Cmax

The value of Cmax measured for the compound "CCOC(=O)N[C@@H]1CC[C@@H]2[C@@H](C1)C[C@H]1C(=O)O[C@H](C)[C@H]1[C@H]2/C=C/c1ccc(-c2cccc(F)c2)cn1" turned out to be 238 to 511 ng/mL

---

EXPERIMENTAL_PROTOCOL: clinical
TEST_SETTINGS: human, in vivo, Tmax Median
MEASURED_ENDPOINT: Tmax (h)
Please reply with the bare figure in h and do not write the unit itself.

The value of Tmax measured for the compound "CCOC(=O)N[C@@H]1CC[C@@H]2[C@@H](C1)C[C@H]1C(=O)O[C@H](C)[C@H]1[C@H]2/C=C/c1ccc(-c2cccc(F)c2)cn1" turned out to be 1

---

EXPERIMENTAL_PROTOCOL: Rising single dose (RSD) study: pharmacokinetics of orally administered COMPOUND 1 in healthy subjects
Assay type: in vivo, human
TEST_SETTINGS: male, human, plasma, po, 10 mg, single oral dose 10 mg, n=6; mean (CV %); read-out: AUC(0-72 hr)
MEASURED_ENDPOINT: AUC(0-t)
Note: state the figure and append the unit.

The value of AUC(0-t) measured for the compound "CCOC(=O)N[C@@H]1CC[C@@H]2[C@@H](C1)C[C@H]1C(=O)O[C@H](C)[C@H]1[C@H]2/C=C/c1ccc(-c2cccc(F)c2)cn1" turned out to be 1510 ng·h/mL

---

EXPERIMENTAL_PROTOCOL: Rising single dose (RSD) study: pharmacokinetics of orally administered COMPOUND 1 in healthy subjects
Type: in vivo, human
TEST_SETTINGS: male, human, plasma, po, 1 mg, single oral dose 1 mg, n=6; mean (CV %); read-out: Cmax
MEASURED_ENDPOINT: Cmax (ng/mL)
Please reply with the bare figure in ng/mL and do not write the unit itself.

The value of Cmax measured for the molecule CCOC(=O)N[C@@H]1CC[C@@H]2[C@@H](C1)C[C@H]1C(=O)O[C@H](C)[C@H]1[C@H]2/C=C/c1ccc(-c2cccc(F)c2)cn1 [COMPOUND 1] turned out to be 9.29

Taken from patent US20120028976A1.
